Test system: LOK
Construct: gene STK10
Settings: concentration: 1 μM, replicates: in singlicate; n = 1;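 note: KINOMEscan kinase panel screen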
measuredEndpoint: %Inh (%)
Write down the numeric answer in % and omit the unit.

Consider the reported %Inh for these compounds:
COc1ccc(COc2cc(-n3cnc4ccccc43)sc2C(N)=O)cc1 [GSK1024304]
0
NS(=O)(=O)c1cccc(-c2ccc3ncc(N4CCOCC4)nc3c2)c1 [GSK1535721]
0

Endpoint output: %Inh of O=C(c1ccc(-c2cc(-c3c[nH]nc3-c3ccccn3)ccn2)cc1)N1CCOCC1 [GW812171] . Value?
28

Which %Inh value is on record for O=C(NCCCN1CCOCC1)c1cccc(Nc2nccc(Nc3ccc(Oc4ccccc4)cc3)n2)c1 [GW663929] ?
23

###

Tested on: TSSK1B
Settings: concentration: 1 μM, replicates: in singlicate; n = 1
measuredEndpoint: %Inh (%)
Entry rule: numbers only, all in %.

Which %Inh is listed for Cc1nnc(-c2ccc3occ(-c4ccc(C(C)O)cc4)c3c2)o1 (stereo not drawn) ?
0

Which %Inh value belongs to `Fc1ccc(-c2ncn(CCCN3CCOCC3)c2-c2ccccn2)cc1` ?
0

Quick one: %Inh of `O=C(NOCC1CC1)c1ccc(F)c(F)c1Nc1ccc(I)cc1Cl` ?
0

For `[2H]C([2H])(c1cccc(C(F)(F)F)c1C)n1ccn2c(=O)nc(N3CCOCC3)cc12` , what is its reported %Inh?
0

###

Test system: WEE1
Conditions: concentration: 1 μM, replicates: in singlicate; n = 1
Listed molecules paired with reported %Inh
Supply the numeric figure in %, leaving out any unit text.

Observe how each entry below is paired with its result.
[2H]C([2H])(c1cccc(C(F)(F)F)c1C)n1ccn2c(=O)nc(N3CCOCC3)cc12
9
O=c1cc(N2CCOCC2)nc2n(Cc3cccc(C(F)(F)F)c3)ccn12
6
COc1cc2c(cc1OC[C@@H](O)CO)ncc1c3ccc(C#N)cc3[nH]c21
0
CC(=O)Nc1ccc(COc2ccc(Nc3ccnc4cc(-c5ccccn5)ccc34)cc2)cc1.Cl
18
O=C(NCCNc1ccnc(Nc2ccc(F)cc2)n1)c1cc2ccccc2s1
38
Cl.Cl.Cl.Fc1ccc(-c2ncn(C3CCNCC3)c2-c2ccnc(Nc3ccccc3)n2)cc1
0

Which %Inh is listed for `COc1ccc(Nc2ncc(C#N)c(Nc3ccccc3C(N)=O)n2)cc1N1CCN(C)CC1.Cl` ?
99.8

Query (molecule): `Fc1ccc(-c2ncn(CCCN3CCOCC3)c2-c2cccnc2)cc1` ; field requested: %Inh
0

Record request: %Inh value, item `O=c1cc(N2CCOCC2)nc2n(Cc3cccc(F)c3)ccn12`
0

###

Tested on: ACVR2B
Conditions: concentration: 1 μM, replicates: in singlicate; n = 1
measuredEndpoint: %Inh (%)
The figure you give is taken to be in %; do not add the unit.

Example compounds with recorded %Inh:
Fc1ccc(-c2nn3c(OCC(F)(F)F)cccc3c2-c2ccncc2)cc1 [GW514784]
0
c1ccc(-c2cc(-c3c[nH]nc3-c3ccccn3)ccn2)cc1 [GW576604]
42
CN1c2ccc(NCc3ccc(F)cc3)cc2-c2c(cnn2C)S1(=O)=O
0
O=c1cc(N2CCOCC2)nc2n(Cc3cccc4ccccc34)ccn12 [GSK2333389]
0

For the compound Cc1nnc(-c2ccc3ncc(-c4ccc(S(C)=O)cc4)n3c2)o1 (stereo not drawn) , what %Inh is on record?
0

Value lookup for %Inh; key = `CCc1ccnc(/C=C/c2n[nH]c3cc(Sc4ccccc4C(=O)NC)ccc23)c1`
0

Give the measured %Inh of Cn1cc(-c2ccc3c(c2)CCN3C(=O)Cc2ccccc2Cl)c2c(N)ncnc21 [GSK2608885] .
13

So what's the measured %Inh for this one? C[C@@H](Oc1cc(-n2cnc3ccc(NC(=O)NC(C)(C)C)cc32)sc1C(N)=O)c1ccccc1Cl [GSK346294]
17

What does the record list as %Inh for Cc1cccc(Cn2ccn3c(=O)cc(N4CCOCC4)nc23)c1 [GSK2297542] ?
4

###

Test system: RSK4(Kin.Dom.2-C-terminal)
Construct: gene RPS6KA6
Details: concentration: 1 μM, replicates: in singlicate; n = 1
Let's look at some compounds and their measured %Inh.
Value and unit, in that order.

c1ccc(-c2cc(-c3c[nH]nc3-c3ccccn3)ccn2)cc1 [GW576604]
8%
CN1c2ccc(CNc3ccc(F)cc3)cc2-c2c(cnn2C)S1(=O)=O
0%
O=C(Nc1cccc(-c2nn3ncccc3c2-c2ccnc(Nc3cccc(C(F)(F)F)c3)n2)c1)c1c(F)cccc1F [GSK299495]
0%
NS(=O)(=O)c1cccc(-c2ccc3ncc(N4CCOCC4)nc3c2)c1 [GSK1535721]
0%

Could you now consider this next compound?
Query (compound): O=C(NCCNc1ccnc(Nc2ccc(F)cc2)n1)c1cc2ccccc2s1 [GSK1379874] ; field requested: %Inh
1%

###

Tested on: TAK1
Construct: gene MAP3K7
Conditions: concentration: 1 μM, replicates: in singlicate; n = 1
This section presents compounds with their documented %Inh values.
Numbers only; they are read as %.

O=C(NCCNc1ccnc(Nc2ccc(F)cc2)n1)c1cc2ccccc2s1 [GSK1379874]
0
COC(=O)Nc1nc2cc(Oc3ccc(NC(=O)Nc4cc(F)ccc4F)cc3)ccc2[nH]1.Cl [GW701424]
8

Return %Inh measured with TAK1 given this compound: CCCCCc1nc2c(N)ncnc2n1CCCCC [SKF-97255]
0

Request - read-out %Inh | tested on TAK1 | compound Cc1c(Cn2c(C)nn3c(=O)cc(N4CCOC(C)C4)nc23)cccc1C(F)(F)F (stereo not drawn) [GSK2344444]
0

###

System: MAPKAPK5
Settings: concentration: 1 μM, replicates: in singlicate; n = 1
measuredEndpoint: %Inh (%)
Only the number, expressed in %, is required.

Check out these entries, answers already filled in.
Cc1c(Cn2c(C)nn3c(=O)cc(N4CCOC(C)C4)nc23)cccc1C(F)(F)F (stereo not drawn)
0
Cc1nnc(-c2ccc3occ(-c4ccc(C(C)O)cc4)c3c2)o1 (stereo not drawn)
19
NCC(NC(=O)c1cc(-c2cn[nH]c2)c(-c2ccnc3[nH]ccc23)s1)c1ccccc1.O=C(O)C(F)(F)F.O=C(O)C(F)(F)F (stereo not drawn)
0
CCn1cnc2c(N)ncnc21
10
O=c1cc(N2CCOCC2)nc2n(Cc3cccc(C(F)(F)F)c3)ccn12
0

Returns the measured %Inh for the input compound. Input: `O=C(Nc1n[nH]c2cc(-c3cccc(F)c3)ccc12)C1CC1`
21

###

Tested on: EPHB3
Settings: concentration: 1 μM, replicates: in singlicate; n = 1
Flag rule - %Inh less than 10% flags yes (1); the remaining entries get no (0).

Sample answers from the record:
Cc1cn2c(=O)cc(N3CCOCC3)nc2n1Cc1cccc(Cl)c1Cl [GSK2334006]
no (0)
O=c1cc(N2CCOCC2)nc2n(Cc3cccc(F)c3)ccn12 [GSK2297430]
no (0)
CCCCCc1nc2c(N)ncnc2n1CCCCC [SKF-97255]
yes (1)
COc1ccc(Nc2nccc(N3CCC(NC(=O)Nc4cc(C)ccc4C)C3)n2)cc1 (stereo not drawn) [GSK1379741]
yes (1)
CCc1ccnc(/C=C/c2n[nH]c3cc(Sc4ccccc4C(=O)NC)ccc23)c1
yes (1)
O=C(c1ccc(-c2cc(-c3c[nH]nc3-c3ccccn3)ccn2)cc1)N1CCOCC1 [GW812171]
no (0)
CN1c2ccc(CNc3ccc(F)cc3)cc2-c2c(cnn2C)S1(=O)=O
yes (1)
Cc1cccc(-c2nc(Nc3ccc4ncsc4c3)c3ccccc3n2)n1 [GW867588]
no (0)

# input for lookup
# check: %Inh < 10% for `COc1cc2c(cc1OC[C@@H](O)CO)ncc1c3ccc(C#N)cc3[nH]c21`
no (0)

###

System: MEK2
Construct: gene MAP2K2
Settings: concentration: 1 μM, replicates: in singlicate; n = 1
We begin with a simple list: items and their reported %Inh.
Please respond with the number in % and leave the unit unwritten.

These solved cases illustrate the format of a correct answer.
Fc1ccc(-c2ncn(CCCN3CCOCC3)c2-c2cccnc2)cc1
44
COCCNC(=O)c1ccc(-c2cc(C(=O)NC3CC3)cc(F)c2C)cc1
32
N#Cc1ccc(-c2cc(-c3c[nH]nc3-c3ccccn3)ccn2)cc1
0
O=C1Cc2cc(Nc3nc(NCc4cccc(S(=O)(=O)C(F)(F)F)c4)ncc3C(F)(F)F)ccc2N1
0
C[C@@H](Oc1cc(-n2cnc3ccc(NC(=O)NC(C)(C)C)cc32)sc1C(N)=O)c1ccccc1Cl
0
O=C(NCCCN1CCOCC1)c1cccc(Nc2nccc(Nc3ccc(Oc4ccccc4)cc3)n2)c1
77

The record that follows has no %Inh shown yet.
Any idea what %Inh came out for `CCc1ccnc(/C=C/c2n[nH]c3cc(Sc4ccccc4C(=O)NC)ccc23)c1` on MEK2?
10

###

Tested on: EPHB4
Settings: concentration: 1 μM, replicates: in singlicate; n = 1
measuredEndpoint: %Inh
I'd appreciate it if you included the unit after the number.

See these solved cases before continuing.
Nc1nc(-c2ccc3c(N)n[nH]c3c2)cc(N2CCCC2)n1
10%
Fc1ccc(-c2ncn(CCCN3CCOCC3)c2-c2ccccn2)cc1
28%
COc1cc(Nc2nccc(N3CCC(NC(=O)c4cccc(NC(C)=O)c4)C3)n2)cc(OC)c1OC (centres unmarked)
12%
Cc1nnc(-c2ccc(C)c(-c3ccc(C(=O)Nc4ccc(NS(C)(=O)=O)cc4)cc3)c2)o1
5%
COc1ccc(CNC(=O)NC2CCN(c3ccnc(Nc4ccc(OC)cc4)n3)C2)cc1 (centres unmarked)
11%
O=c1cc(N2CCOCC2)nc2n(Cc3cccc(Cl)c3Cl)c(C3CC3)nn12
3%
O=C(NCCCN1CCOCC1)c1cccc(Nc2nccc(Nc3ccc(Oc4ccccc4)cc3)n2)c1
14%
COc1ccc(Nc2ncc(C#N)c(Nc3ccccc3C(N)=O)n2)cc1N1CCN(C)CC1.Cl
76%

Could you tell me which %Inh is on file for `Fc1ccc(-c2nn3c(OCC(F)(F)F)cccc3c2-c2ccncc2)cc1` ?
1%

// query %Inh value for entry `NS(=O)(=O)c1cccc(-c2ccc3nccc(-c4cccc(S(N)(=O)=O)c4)c3c2)c1`
0%

Which %Inh is listed for `Cc1ccc(NC(=O)c2ccnc(N3CCN(C)CC3)c2)cc1-c1ccc(C(=O)NCC2CC2)cc1` ?
0%
